pKd values, listed per item
Target: CXCL6
Assay: BLI
Answer as the number alone; pKd is minus log10 of concentration in mol/L.

Task item: Could you share which pKd value was measured for P942_IXORI (other) NQLSGPQSSANSNEAVFCDTNCTQGTDEAWSGCRGDCFCVYVGNSTEGRCMMLSGDFDYSTPGAED ?
Reply: 8.14

Task item: Dear colleague, I am looking for the recorded pKd of the following binder: P1156_IXORI (other) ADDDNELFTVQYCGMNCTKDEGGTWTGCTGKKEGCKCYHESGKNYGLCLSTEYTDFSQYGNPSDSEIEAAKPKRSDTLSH
Reply: 7.20

Task item: Requested field: pKd. Item: P1104_IXORI (other) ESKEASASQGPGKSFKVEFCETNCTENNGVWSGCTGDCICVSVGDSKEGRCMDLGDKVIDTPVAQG
Reply: 7.46

Task item: Please give the measured pKd for this binder: P1077_IXORI (other) GSKQLIGPQSSTNSIKAEFCDTNCTAGTNGIWNGCSGDCFCTHVGNSTEGRCMKITGFDEYPTSEAEE
Reply: 7.53

Then this binder:
Task item: Which pKd reading was recorded for the binder P1086_IXORI (other) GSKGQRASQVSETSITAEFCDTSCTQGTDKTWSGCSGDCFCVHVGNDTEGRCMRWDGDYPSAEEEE ?
Reply: 7.97
